Biological target: human SLC6A19 (Homo sapiens)
Construct: expressed in transfected cells
Sequence (Q695T7 whole entry): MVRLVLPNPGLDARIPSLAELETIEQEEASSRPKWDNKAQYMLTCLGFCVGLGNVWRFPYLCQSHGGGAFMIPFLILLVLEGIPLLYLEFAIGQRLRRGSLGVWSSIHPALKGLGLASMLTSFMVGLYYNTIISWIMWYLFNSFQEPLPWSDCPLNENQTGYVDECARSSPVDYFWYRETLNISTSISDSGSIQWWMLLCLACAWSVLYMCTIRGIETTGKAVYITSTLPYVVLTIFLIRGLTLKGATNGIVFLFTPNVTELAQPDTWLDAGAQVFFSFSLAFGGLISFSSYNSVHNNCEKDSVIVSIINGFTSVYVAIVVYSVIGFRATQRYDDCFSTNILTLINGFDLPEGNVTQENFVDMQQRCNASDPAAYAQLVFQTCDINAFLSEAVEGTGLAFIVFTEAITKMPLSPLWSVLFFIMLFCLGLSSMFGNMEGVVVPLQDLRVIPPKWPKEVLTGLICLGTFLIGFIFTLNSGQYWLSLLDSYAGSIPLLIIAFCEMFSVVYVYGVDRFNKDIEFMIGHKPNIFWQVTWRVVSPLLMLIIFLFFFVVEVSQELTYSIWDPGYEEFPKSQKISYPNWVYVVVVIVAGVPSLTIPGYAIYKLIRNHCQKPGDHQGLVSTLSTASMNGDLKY
Sequence (Q9HBJ8 15-222 partner): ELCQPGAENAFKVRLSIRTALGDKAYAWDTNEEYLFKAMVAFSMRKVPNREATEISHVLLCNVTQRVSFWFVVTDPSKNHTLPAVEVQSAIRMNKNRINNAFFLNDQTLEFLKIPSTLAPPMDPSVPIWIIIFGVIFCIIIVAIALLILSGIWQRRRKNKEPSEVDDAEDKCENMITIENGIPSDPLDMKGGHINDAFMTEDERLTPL
Experiment: Isoleucine transport assay, Flp-In T-REx 293 cells coexpressing human SLC6A19 and TMEM27
Format: cell-based
Settings: geometric mean n = 6; 95% CI 0.68–2.82 μM; read-out: IC50 against human SLC6A19, isoleucine transport assay
readout.name: pIC50
# pIC50 is unitless: minus log10 of the molar concentration; print number only

Provide one value: measured pIC50 of `N#Cc1ccc(-c2noc([C@]3(C(F)(F)F)CCN(C(=O)NCCC4(N)CC4)C3)n2)cc1`
5.90

###

Experiment: JN-170 plasma pharmacokinetics in Pah^enu2 mice, single oral dose
Assay type: in vivo, mouse
Conditions: male, BTBR-Pah<enu2>/J (Pah^enu2), mouse, plasma, oral, 200 mg/kg, 200 mg/kg oral, 1 h; individual Pah^enu2 mice; read-out: JN-170 plasma level (Fig 3a)
readout.name: concentration at 1 h (ng/mL)
Field: numeric (ng/mL). Do not append units.

Item N#Cc1ccc(-c2noc([C@]3(C(F)(F)F)CCN(C(=O)NCCC4(N)CC4)C3)n2)cc1 [JN-170] : provide concentration at 1 h
8750

###

Assay: JNT-517 plasma pharmacokinetics in healthy volunteers
Type: in vivo, human
Conditions: human, plasma, oral; SAD 170 mg; min, max 0.5, 2.0; read-out: Median Tmax
readout.name: Tmax (min)
Just the number in min, nothing appended.

Give a short answer stating reported Tmax for `NC(=O)N1CCC[C@@H](N(C(=O)NCc2ccc(OC(F)(F)F)cc2F)C2CC2)C1` .
45

###

Test: JN-170 plasma pharmacokinetics in Pah^enu2 mice, single oral dose
Format: in vivo, mouse
Conditions: male, BTBR-Pah<enu2>/J (Pah^enu2), mouse, plasma, oral, 100 mg/kg, 100 mg/kg oral, 1 h; individual Pah^enu2 mice; read-out: JN-170 plasma level (Fig 3a)
readout.name: concentration at 1 h (ng/mL)
Could you give me the number in ng/mL? Just the number is fine.

Recall and state the measured concentration at 1 h for N#Cc1ccc(-c2noc([C@]3(C(F)(F)F)CCN(C(=O)NCCC4(N)CC4)C3)n2)cc1 [JN-170] .
5780

###

Assay: JN-170 plasma pharmacokinetics in Pah^enu2 mice, single oral dose
Assay type: in vivo, mouse
Details: male, BTBR-Pah<enu2>/J (Pah^enu2), mouse, plasma, oral, 250 mg/kg, 250 mg/kg oral, 8 h; individual Pah^enu2 mice; read-out: JN-170 plasma level (Fig 3a)
readout.name: concentration at 8 h (ng/mL)
Kindly answer with a numeric value in ng/mL, unit omitted.

Hello, please tell me recorded concentration at 8 h for this one: N#Cc1ccc(-c2noc([C@]3(C(F)(F)F)CCN(C(=O)NCCC4(N)CC4)C3)n2)cc1 [JN-170]
11200

###

Assay: JNT-517 plasma pharmacokinetics in healthy volunteers
Format: in vivo, human
Details: human, plasma, oral; SAD 10 mg; %CV 50.2; read-out: Mean T1/2 (converted)
readout.name: half-life (h)
Reply numerically in h, unit not repeated.

Please look at this compound and report its half-life: `NC(=O)N1CCC[C@@H](N(C(=O)NCc2ccc(OC(F)(F)F)cc2F)C2CC2)C1`
6.37

src = paper PMC11601558
